Test: protein stability index of a GFP-peptide fusion (GPS, HEK-293T) (PSI 1-6); higher = more stable;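 further: 24-mer peptide tiles fused after GFP, lentivirally expressed, FACS-sorted into six equal bins by GFP/DsRed ratio, decoded by Illumina sequencing, PSI is the read-weighted mean bin number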
Conditions: treatment: MLN4924 1 uM, 8 h; c terminus: a fixed tail appended
Entries and their protein stability index
Enter the number alone.

Example results:
{"columns": ["Chain", "Property measured", "Result number"],
 "data": [
  ["DAMQLNDKWQGLCWPMMDFLRCVT [CMTM3]", "protein stability index", 2.26],
  ["MCNVKAPLGSPSPRPRRAKRFASL [ADAMTS4]", "protein stability index", 3.77],
  ["QNFKNRESYPEDTVFYIPEDHKPG [DLC1]", "protein stability index", 4.53],
  ["SGMTEVERTYSANCSDFLESKGCF [SPATS1]", "protein stability index", 3.62],
  ["QRILRIMCRLEELGLAGRCLTLTP [HDAC6]", "protein stability index", 2.34],
  ["YIQSRADTMQNIESTIVELGSIFQ [STX5]", "protein stability index", 2.62]
]}

Ask: What value of protein stability index has been reported for the following sequence? PLFSNWWIQVTSLRIFVWLLLLYF [PHTF1]
Reply: 2.5

Ask: Give the measured protein stability index of HNRKVLTIFSASNYYEVGSNRGAY [PPEF2] .
Reply: 2.46
